- System: M14 melanoma
- test: NCI tumour cell line growth inhibition, 48 h

{"columns": ["compound", "assayed_system", "value_units", "inequality_operator", "TGI"],
 "data": [
  ["COc1ccc(/C(C)=C(\\c2ccc(Cl)cc2)c2ccc(OCCN3CCCCCC3)cc2)cc1F", "M14 melanoma", "µM", "=", 7.18],
  ["CCSc1ncc(Br)c(Sc2nc(N)nc3nc[nH]c23)n1", "M14 melanoma", "µM", "=", 8.68],
  ["NC(=O)c1ncn(C2OC(CO)C(O)C2O)c1N (centres undefined)", "M14 melanoma", "µM", ">", 100]
]}

====

- Test system: RXF 393 renal
- test: NCI tumour cell line growth inhibition, 48 h

{"columns": ["compound", "GI50"],
 "data": [
  ["COc1cc(/C=C\\c2cc(OC)c(OC)c(OC)c2)cc(NS(=O)(=O)c2ccc(Cl)cc2)c1OC", "272 nM"],
  ["O=C(N/N=C/c1ccc(F)cc1)c1ccc(C(F)(F)F)nc1Nc1cccc(C(F)(F)F)c1", "457 nM"],
  ["COc1ccc(Cc2nc3cc(OC)c(OC)cc3c(=O)[nH]2)cc1", "3950 nM"],
  ["COC(=O)c1ccc2[nH]c(O)c(C(=Nc3ccc(N(C)C(=O)CN4CCN(C)CC4)cc3)c3ccccc3)c2c1", "422 nM"],
  ["CC1OC(OC2C(O[C@H]3CC[C@@]4(C)C(=CC[C@H]5[C@@H]6C[C@@H]7O[C@]8(CC[C@@H](C)CO8)[C@@H](C)[C@@H]7[C@@]6(C)CC[C@@H]54)C3)OC(CO)C(OC3OC(CO)C(O)C3O)C2O)C(O)C(O)C1O (stereo partly specified)", "294 nM"],
  ["C#CC#CC#CC#CC#CC#CC#CC#CC[C@@H]1OC[C@@H](COC(=O)O[C@@H](C(=O)O[C@H]2C[C@@]3(O)[C@@H](OC(=O)c4ccccc4)[C@@H]4[C@]5(OC(C)=O)CO[C@@H]5C[C@H](O)[C@@]4(C)C(=O)[C@H](OC(C)=O)C(=C2C)C3(C)C)[C@@H](NC(=O)c2ccccc2)c2ccccc2)O1", "471 nM"],
  ["O=C1CCS/C(=N/S(=O)(=O)c2ccc(N3N=C4c5ccccc5CC4C3c3cccs3)cc2)N1Cc1ccccc1 (stereo unspecified)", "21200 nM"],
  ["COC(=O)[C@]1(C)CCC[C@]2(C)[C@@H]1CCC13C[C@@H](C=CO1)[C@@H](C)CC32O (stereo partly specified)", "66800 nM"],
  ["CCN(CC)CCOc1ccc2c(C)c(C(=O)OC)oc2c1C(=O)/C=C/c1ccc(OC)cc1", "13800 nM"],
  ["COc1ccc(/C(C)=C(\\c2ccc(Cl)cc2)c2ccc(OCCN3CCCCCC3)cc2)cc1F", "2550 nM"],
  ["COc1c(O)c2c3c(c1OC)-c1ccccc1CC3N(S(=O)(=O)c1ccc(C)cc1)CC2 (stereo unspecified)", "1340 nM"]
]}
